Just for reference, paper PMC4336329 is where these values come from.

target.or.test.system: human ether-à-go-go-related gene (hERG) potassium channel (human);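 also: peak tail current of the secondary pulse compared with the same well before compound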
Sequence (Q12809 whole entry, looked up): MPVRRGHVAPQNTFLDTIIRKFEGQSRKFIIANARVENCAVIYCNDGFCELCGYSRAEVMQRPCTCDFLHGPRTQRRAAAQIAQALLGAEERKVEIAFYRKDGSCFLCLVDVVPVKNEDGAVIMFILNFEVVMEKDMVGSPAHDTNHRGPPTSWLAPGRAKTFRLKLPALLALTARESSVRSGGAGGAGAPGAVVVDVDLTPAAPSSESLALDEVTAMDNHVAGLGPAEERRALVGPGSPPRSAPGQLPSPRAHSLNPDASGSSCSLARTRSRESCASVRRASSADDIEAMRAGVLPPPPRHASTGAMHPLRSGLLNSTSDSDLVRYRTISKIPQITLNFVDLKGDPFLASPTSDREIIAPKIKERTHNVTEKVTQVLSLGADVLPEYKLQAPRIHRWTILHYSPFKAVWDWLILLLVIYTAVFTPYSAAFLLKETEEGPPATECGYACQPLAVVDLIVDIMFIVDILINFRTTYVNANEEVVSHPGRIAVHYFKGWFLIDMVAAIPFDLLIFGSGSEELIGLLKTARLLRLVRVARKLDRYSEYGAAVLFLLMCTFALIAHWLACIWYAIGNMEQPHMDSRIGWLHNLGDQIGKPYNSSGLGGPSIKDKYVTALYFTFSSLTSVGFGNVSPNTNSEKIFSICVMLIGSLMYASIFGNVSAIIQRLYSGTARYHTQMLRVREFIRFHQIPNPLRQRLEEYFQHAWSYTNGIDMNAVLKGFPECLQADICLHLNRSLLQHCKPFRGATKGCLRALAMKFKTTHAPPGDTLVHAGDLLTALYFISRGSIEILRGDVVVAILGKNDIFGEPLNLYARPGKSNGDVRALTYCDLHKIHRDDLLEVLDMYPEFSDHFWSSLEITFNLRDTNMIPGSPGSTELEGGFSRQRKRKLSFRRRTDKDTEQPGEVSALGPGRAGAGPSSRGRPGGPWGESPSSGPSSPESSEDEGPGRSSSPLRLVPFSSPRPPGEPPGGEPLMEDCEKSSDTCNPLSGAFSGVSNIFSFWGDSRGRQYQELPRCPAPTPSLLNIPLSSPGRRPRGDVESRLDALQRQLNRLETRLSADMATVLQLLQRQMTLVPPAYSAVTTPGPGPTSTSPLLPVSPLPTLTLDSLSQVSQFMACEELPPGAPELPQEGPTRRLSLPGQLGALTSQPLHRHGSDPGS
assay.overview: primary screen, population patch clamp on CHO cells stably expressing hERG; higher = less effect of the substance
Out of some 310,000 compounds screened, about 14,000 (4.5%) showed an effect of 50% or more. The effect is printed as a negative number. Many of the other results were omitted from the sample, so strong results are more common in it than they were.
Reported hERG current change (%, negative = inhibition) at 10uM values are given for each entry in this list.
Field: numeric (%). Do not append units.

Use these answered entries as a reference point.
- chemical.smiles: "COc1ccc(NC(=O)c2ccccc2NC(=O)CN2CCCCCC2)cc1"
  numeric.result: 8.82
- chemical.smiles: "COc1cccc(NC(=O)CN2CCN(CC(=O)Nc3ccccc3Cl)CC2)c1"
  numeric.result: -61
- chemical.smiles: "Fc1ccc2c(-c3cccc(C(F)(F)F)c3)c(-c3ccccc3)ncc2c1"
  numeric.result: 14.1
- chemical.smiles: "COc1ccc(S(=O)(=O)N2CCN(CC(=O)Nc3ccccc3Cl)CC2)cc1"
  numeric.result: -1.6
- chemical.smiles: "O=C(COc1ccc(Cl)cc1)Nc1ccccc1Cl"
  numeric.result: 3.26

Q. Quote hERG current change (%, negative = inhibition) at 10uM reported for COc1cccc(CC(=O)Nc2ccccc2N2CCCC2)c1 please.
A. -5.39

Q. Quote hERG current change (%, negative = inhibition) at 10uM reported for Clc1ccc(N2CCN(/N=C/c3cccnc3)CC2)cc1 please.
A. -1.21

Q. Quote hERG current change (%, negative = inhibition) at 10uM reported for CCOC(=O)c1c(C)sc2c1N(C(=O)CN1CCOCC1)c1cc(Cl)ccc1S2 please.
A. -21.5

Q. Quote hERG current change (%, negative = inhibition) at 10uM reported for CCc1nnc(NC(=O)CN2CCN(Cc3cccc(OC)c3)CC2)s1 please.
A. -19

Q. Quote hERG current change (%, negative = inhibition) at 10uM reported for COc1cccc(NC(=O)CN2CCC(C)CC2)c1 please.
A. 1.52
